# Test system: MDA-MB-231 breast
# protocol.description: NCI-60 one-dose screen, 48 h (100 = growth as untreated, 0 = no growth, -100 = all killed)
# study.conditions: 10 µM unless noted
Compounds without any hit were thinned out: in the full panel of roughly 83,000, 20% have a hit.
Reported growth values are given for each entry in this list.
Give the value in % but do not write % after it.

The examples below pair each entry with its known result.
> print(dat)
                                   molecule  unit.of.measure  meas.value
1  C=C1/C(=C\C=C2/CCC[C@]3(C)[C@@H]([C@H](C)CCCC(C)(C)O)CC[C@@H]23)C[C@@H](OC(=O)CBr)C[C@@H]1O                %        20.5
2  Clc1ccc2c(NCCCn3cnc4c(N5CCCC5)nc(Cl)nc43)ccnc2c1                %        89.8
3  C#CCOc1cc(/C=N/Nc2nc(-c3ccc(OC)cc3)cs2)ccc1O                %        96.5
4               CCOc1ccc(N2C(=O)CCSC2=S)cc1                %         104

[ask] Please look up its growth: CCOC(=O)CC1CSC(N/N=C(/C)c2cccc(C(F)(F)F)c2)=N1 (stereo not given)
[reply] 94.4

----------
# Tested on: A549/ATCC NSCLC
# protocol.description: NCI-60 one-dose screen, 48 h (100 = growth as untreated, 0 = no growth, -100 = all killed)
# study.conditions: 10 µM unless noted
# Experimental: Growth inhibition of the A549/ATCC human Non-Small Cell Lung tumor cell line is measured as a screen for anti-cancer activity. Cells are grown in 96 well plates and exposed to the test compound for 48 hours. Compounds are tested at a single concentration, which is 10^-5 M for most compounds. The reported endpoint is percent growth (GI% or GIPRCNT), where numbers from 0 - 100% represent growth inhibition, and numbers from -100% - 0 represent cell death. […]
The panel holds about 83,000 compounds, 20% with a hit somewhere; the sample as a whole holds those more often.
Friendly reminder: growth below 60% is 1.0, at or above is 0.0.

molecule	qualitative.label
Cc1ccc(C(=O)Nc2ccc(CN3CCN(C)CC3)c(C(F)(F)F)c2)cc1C#Cc1cnc(N)c2ccccc12	1.0
CC(C)(C)n1cc(-c2ccnc(NCCNS(=O)(=O)c3ccc(Br)cc3)c2)c(-c2cccc(O)c2)n1	1.0
Cc1c(-c2cnc3ccc(Cl)cc3c2C(=O)O)nnn1-c1ccc(Cl)cc1	0.0
CCCCCN(CCCCC)CC(O)c1c(Cl)ccc2ccccc12 (stereo not drawn)	0.0
CCOc1ccc(N2C(=O)CCSC2=S)cc1	0.0

[ask] I'd appreciate it if you could check whether `O=C(O)c1cc2ccccc2s1` has growth smaller than 60%.
[reply] 0.0

[ask] I'd appreciate it if you could check whether `O=[N+]([O-])c1ccc(Oc2cccc3c(Oc4ccc([N+](=O)[O-])cc4[N+](=O)[O-])cccc23)c([N+](=O)[O-])c1` has growth smaller than 60%.
[reply] 0.0

[ask] I'd appreciate it if you could check whether `O=C(O)/C=C/c1cn(-c2ccccc2)nc1-c1ccc(F)cc1` has growth smaller than 60%.
[reply] 0.0

[ask] I'd appreciate it if you could check whether `O=C(/C=C\c1ccc(O)c(O)c1)c1ccccc1O` has growth smaller than 60%.
[reply] 1.0

[ask] I'd appreciate it if you could check whether `C=CCn1c(SCC(=O)Nc2ccc(C(=O)/C=C/c3ccc(Cl)cc3)cc2)nnc1-c1ccc(Cl)c(Cl)c1` has growth smaller than 60%.
[reply] 0.0

[ask] I'd appreciate it if you could check whether `Oc1cccc2c1NCCC2` has growth smaller than 60%.
[reply] 1.0

[ask] I'd appreciate it if you could check whether CC1=C(C(=O)c2ccccc2)C(c2ccc3c(c2)OCO3)NC(=S)N1 (stereo not drawn) has growth smaller than 60%.
[reply] 1.0

[ask] I'd appreciate it if you could check whether `CCOC(=O)/C(=C/c1ccc([N+](=O)[O-])cc1)C(=O)c1ccccc1` has growth smaller than 60%.
[reply] 0.0

[ask] I'd appreciate it if you could check whether `CCOC(=O)c1c(C)nc2c(c1N)C(=O)C(=O)N2CCc1ccc(OC)c(OC)c1` has growth smaller than 60%.
[reply] 0.0

[ask] I'd appreciate it if you could check whether `O=C(Nc1ccc(Cl)cc1)C1=NCCCCN1` has growth smaller than 60%.
[reply] 0.0

----------
# Test system: NCI-H226 lung
# protocol.description: NCI-60 one-dose screen, 48 h
# study.conditions: 10 µM unless noted
Compounds without any hit were thinned out: in the full panel of roughly 83,000, 20% have a hit. Calls of active or inactive are those of the source. How the source made its calls: active means growth percent below 10; inactive means the rest.
Parameter call: string, one of active, inactive

Consider the following illustrative entries.
compound	qualitative.label
CC(C)(C)n1cc(-c2ccnc(NCCNS(=O)(=O)c3ccc(Br)cc3)c2)c(-c2cccc(O)c2)n1	inactive
CN1CCN(Cc2ccc(NC(=O)c3cncc(C#Cc4cnc(N)c5ncccc45)c3)cc2Cl)CC1	inactive
c1ccc2cc(Cn3cc[n+](Cc4ccc5ccccc5c4)c3)ccc2c1	inactive
Cc1c(Cl)cccc1NC(=O)c1sc2nc3c(cc2c1N)CCCC3	inactive
CCN1C(=O)N(CC)C2C1NN=c1s/c(=C\c3ccc([N+](=O)[O-])cc3)c(=O)n12 (stereo not given)	inactive
COc1ccc(C2=C/C(=C\c3ccccc3O)C(=O)N2Cc2ccccc2)cc1	inactive
CN1CCN(Cc2ccc(NC(=O)c3cc(C#Cc4cnc(N)c5ncccc45)n(C)n3)cc2C(F)(F)F)CC1	inactive
O=C1c2cccnc2C(=O)c2c1c(C(=O)OCCCN1CCOCC1)c1ccccn21	active

[ask] Which outcome was entered for the compound `CNC(=O)c1cc(Oc2cccc3nc(NC(=O)Nc4ccc(F)cc4F)ccc23)ccn1` in this test?
[reply] inactive

[ask] Which outcome was entered for the compound `CC(C)CCc1nc2ccc(NCc3ccc(OCCN4CCC(C)CC4)cc3)cc2[nH]1` in this test?
[reply] inactive

[ask] Which outcome was entered for the compound CN(C)CC1C(=O)O[C@H]2[C@H]1CC/C(COC(=O)NCc1ccc(Cn3c(=O)sn(CCCI)c3=O)cc1)=C\CC[C@@]1(C)O[C@@H]21 (stereo not given in full) in this test?
[reply] active

[ask] Which outcome was entered for the compound `CCOC(=O)/C(=C/c1ccc([N+](=O)[O-])cc1)C(=O)c1ccccc1` in this test?
[reply] inactive

[ask] Which outcome was entered for the compound `CS(=O)(=O)Nc1cc(-c2ccc3ncnc(Nc4cccc(Cl)c4)c3c2)cnc1Cl` in this test?
[reply] inactive

[ask] Which outcome was entered for the compound `O=C(NCCN1CCOCC1)c1cncnc1Nc1ccc2c(ccn2Cc2ccccn2)c1` in this test?
[reply] inactive

[ask] Which outcome was entered for the compound `O=C(COc1ccc(/C=C2\Oc3ccccc3C2=O)cc1)Nc1nccs1` in this test?
[reply] inactive

[ask] Which outcome was entered for the compound `CCOc1cc(\C=N/N=C(N)/C(N)=N\N=C/c2ccc(O)c(OCC)c2)ccc1O` in this test?
[reply] inactive

[ask] Which outcome was entered for the compound COc1cccc(C2C(C#N)=C(N)Oc3c2ccc2ccccc32)c1 (stereo not given) in this test?
[reply] inactive

[ask] Which outcome was entered for the compound `CN(C)C(=O)OCc1ccc2c(Cl)cc(Cl)c(O)c2n1` in this test?
[reply] inactive

[ask] Which outcome was entered for the compound `C=CC(=O)NCc1cccc(Nc2ncc(Br)c(NCCCNC(=O)C3CCC3)n2)c1` in this test?
[reply] active

[ask] Which outcome was entered for the compound `CN1/C(=C/C=C/c2n(Cc3ccc4ccccc4c3)c(Cl)c(Cl)[n+]2Cc2ccc3ccccc3c2)Oc2ccccc21` in this test?
[reply] active

----------
# System: SW-620 colon
# protocol.description: NCI-60 one-dose screen, 48 h (100 = growth as untreated, 0 = no growth, -100 = all killed)
# study.conditions: 10 µM unless noted
About 83,000 compounds went through this panel and 20% of them were active in at least one assay; those are over-represented in the sample as a whole.
Criterion: growth meeting or surpassing 30%. Met: 1 (yes). Not met: 0 (no).

[ask] State whether the measured growth reaches 30%, counting equality as reaching it, for CCOC(=O)C1=CCC(n2cc(F)c(=O)[nH]c2=O)O1 (stereo not drawn)
[reply] 1 (yes)

[ask] State whether the measured growth reaches 30%, counting equality as reaching it, for `O=C1/C(=C/c2cccc([N+](=O)[O-])c2)COc2ccc(O)c(O)c21`
[reply] 0 (no)

[ask] State whether the measured growth reaches 30%, counting equality as reaching it, for `O=C(c1ccc(F)cc1)C1CCN(CCn2c(=O)[nH]c3ccccc3c2=O)CC1`
[reply] 1 (yes)

[ask] State whether the measured growth reaches 30%, counting equality as reaching it, for CCCC1Cc2cc(-n3nc(C)c4c3CC(C)(C)CC4=O)cc(NC3CCC(O)CC3)c2C(=O)N1 (stereo not drawn)
[reply] 0 (no)

[ask] State whether the measured growth reaches 30%, counting equality as reaching it, for `C#Cc1ccc(NC(=O)Cc2ccc(/C=C/C(=O)c3nccn3C)cc2)cc1`
[reply] 0 (no)
